assay: Half life in Sprague-Dawley rat at 20 mg/kg, po; assay type: ADME, organism-based; conditions: in vivo
Measured quantity: half-life (min)
Supply the numeric figure in min, leaving out any unit text.

I have this molecule here, COc1cc2ncnc(Nc3ccc(F)c(Cl)c3)c2cc1OCCOCCOCCOCCNC(=O)COc1c(Br)cc(/C=C2\C(=O)Nc3ccc(I)cc32)cc1Br , and I need its recorded half-life.
18.4

###

assay: Stability in mouse plasma at 1 mg/ml incubated for 160 mins by HPLC analysis; type: ADME, cell-free; conditions: read-out: Stability
Measured quantity: remaining at 2.667 h, 1 mg/ml (%)
Supply the numeric figure in %, leaving out any unit text.

I have this compound here, COc1cc2ncnc(Nc3ccc(F)c(Cl)c3)c2cc1OCCOCCOCCOCCNC(=O)COc1c(Br)cc(/C=C2\C(=O)Nc3ccc(I)cc32)cc1Br , and I need its recorded remaining at 2.667 h, 1 mg/ml.
90
